- STUDY_TARGET: T1, mSPSB2(12–224) (murine, UniProt O88838 12-224)
- T1 construct: murine SPSB2 (SSB-2), residues 12-224: lacks the first 11 residues and the C-terminal SOCS box; Uniformly 15N-labelled in one NMR experiment; also called mSPSB2ΔSB; 15N-mSPSB2(12–224); source: E. coli Origami B(DE3) pLysS, GST fusion, purified (glutathione-Sepharose, thrombin cleavage, gel filtration)
- T1 sequence (looked up): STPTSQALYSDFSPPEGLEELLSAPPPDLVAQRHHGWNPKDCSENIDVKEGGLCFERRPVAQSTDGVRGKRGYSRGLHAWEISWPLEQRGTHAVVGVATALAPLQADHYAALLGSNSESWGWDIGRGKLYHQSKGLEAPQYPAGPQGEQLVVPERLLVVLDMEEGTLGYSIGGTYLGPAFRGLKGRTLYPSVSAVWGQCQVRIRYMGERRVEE
- PROTOCOL_DESCRIPTION: ITC; 100 μM peptide titrated into 10 μM mSPSB protein; 22 °C; 20 mM Tris, 150 mM sodium chloride, 2.5 mM calcium chloride, pH 8.0; single binding site model
- STUDY_CONDITIONS: both partners purified
METRIC: pKd
// returns pKd (minus log10 of molar concentration), number only

Query string: Please supply the value of reported pKd for the item AAANEINNNLPGGA (human prostate apoptosis response protein-4 (hPar-4), residues 64-77, L69I) [[L69I]hPar-4(64–77)]
Result string: 5.80

Query string: Indicate its recorded pKd; the binder in question is GTPAAAADNELNNNLPGGA (human prostate apoptosis response protein-4 (hPar-4), residues 59-77, A66D; source: synthetic peptide (GL Biochem)) [[A66D]hPar-4(59–77)]
Result string: 5.40

Query string: Supply pKd value. Item: AAANDINNNLPGGA (human prostate apoptosis response protein-4 (hPar-4), residues 64-77, E68D and L69I (DINNN motif as in VASA); also called double mutant; source: synthetic peptide (GenScript Corporation)) [[E68D,L69I]hPar-4(64–77)]
Result string: 6.97

Query string: Tell us which pKd value is on record for AAANDLNNNLPGGA (human prostate apoptosis response protein-4 (hPar-4), residues 64-77, E68D) [[E68D]hPar-4(64–77)]
Result string: 6.68

Query string: Look up and report measured pKd for this entry: AAANELNNNLPGGA (human prostate apoptosis response protein-4 (hPar-4), residues 64-77; also called shorter wild-type hPar-4 peptide; source: synthetic peptide (GenScript Corporation)) [hPar-4(64–77)]
Result string: 5.49
